Values were extracted from patent US8754054B2.

# Tested on: E. coli 102 (ATCC 25922)
# EXPERIMENT_SUMMARY: Antibacterial activity in vitro, NCCLS dilution method (Table 10)
# Type: cell-based
# ASSAY_CONDITIONS: Gram −, QC strain
VALUE_TYPE: antibacterial activity (dilution susceptibility test)
Field format: numeric only.

# lookup: antibacterial activity (dilution susceptibility test) of C[C@@H](O)[C@H]1C(=O)N2C(C(=O)O)=C(S[C@@H]3CN[C@H](C(=O)N(C)C)C3)[C@H](C)[C@H]12
0.03

# lookup: antibacterial activity (dilution susceptibility test) of COC(=O)c1c(C)cc2c(c1O)[C@]1(O)C(=O)c3cc4c(c(O)c3C(=O)[C@]1(OC)[C@H](O)C2)C(=O)C=C(N[C@H]1O[C@@H](C)[C@H](OC)[C@@H](O)[C@H]1OC)C4=O
32
